Where these numbers come from: patent US20250122183A1

log10 Ki values by entry
TEST SYSTEM: KAT6A Full length enzyme (Homo sapiens (Human))
Sequence (Q92794 other isoform, or with tags, fused parts or gaps): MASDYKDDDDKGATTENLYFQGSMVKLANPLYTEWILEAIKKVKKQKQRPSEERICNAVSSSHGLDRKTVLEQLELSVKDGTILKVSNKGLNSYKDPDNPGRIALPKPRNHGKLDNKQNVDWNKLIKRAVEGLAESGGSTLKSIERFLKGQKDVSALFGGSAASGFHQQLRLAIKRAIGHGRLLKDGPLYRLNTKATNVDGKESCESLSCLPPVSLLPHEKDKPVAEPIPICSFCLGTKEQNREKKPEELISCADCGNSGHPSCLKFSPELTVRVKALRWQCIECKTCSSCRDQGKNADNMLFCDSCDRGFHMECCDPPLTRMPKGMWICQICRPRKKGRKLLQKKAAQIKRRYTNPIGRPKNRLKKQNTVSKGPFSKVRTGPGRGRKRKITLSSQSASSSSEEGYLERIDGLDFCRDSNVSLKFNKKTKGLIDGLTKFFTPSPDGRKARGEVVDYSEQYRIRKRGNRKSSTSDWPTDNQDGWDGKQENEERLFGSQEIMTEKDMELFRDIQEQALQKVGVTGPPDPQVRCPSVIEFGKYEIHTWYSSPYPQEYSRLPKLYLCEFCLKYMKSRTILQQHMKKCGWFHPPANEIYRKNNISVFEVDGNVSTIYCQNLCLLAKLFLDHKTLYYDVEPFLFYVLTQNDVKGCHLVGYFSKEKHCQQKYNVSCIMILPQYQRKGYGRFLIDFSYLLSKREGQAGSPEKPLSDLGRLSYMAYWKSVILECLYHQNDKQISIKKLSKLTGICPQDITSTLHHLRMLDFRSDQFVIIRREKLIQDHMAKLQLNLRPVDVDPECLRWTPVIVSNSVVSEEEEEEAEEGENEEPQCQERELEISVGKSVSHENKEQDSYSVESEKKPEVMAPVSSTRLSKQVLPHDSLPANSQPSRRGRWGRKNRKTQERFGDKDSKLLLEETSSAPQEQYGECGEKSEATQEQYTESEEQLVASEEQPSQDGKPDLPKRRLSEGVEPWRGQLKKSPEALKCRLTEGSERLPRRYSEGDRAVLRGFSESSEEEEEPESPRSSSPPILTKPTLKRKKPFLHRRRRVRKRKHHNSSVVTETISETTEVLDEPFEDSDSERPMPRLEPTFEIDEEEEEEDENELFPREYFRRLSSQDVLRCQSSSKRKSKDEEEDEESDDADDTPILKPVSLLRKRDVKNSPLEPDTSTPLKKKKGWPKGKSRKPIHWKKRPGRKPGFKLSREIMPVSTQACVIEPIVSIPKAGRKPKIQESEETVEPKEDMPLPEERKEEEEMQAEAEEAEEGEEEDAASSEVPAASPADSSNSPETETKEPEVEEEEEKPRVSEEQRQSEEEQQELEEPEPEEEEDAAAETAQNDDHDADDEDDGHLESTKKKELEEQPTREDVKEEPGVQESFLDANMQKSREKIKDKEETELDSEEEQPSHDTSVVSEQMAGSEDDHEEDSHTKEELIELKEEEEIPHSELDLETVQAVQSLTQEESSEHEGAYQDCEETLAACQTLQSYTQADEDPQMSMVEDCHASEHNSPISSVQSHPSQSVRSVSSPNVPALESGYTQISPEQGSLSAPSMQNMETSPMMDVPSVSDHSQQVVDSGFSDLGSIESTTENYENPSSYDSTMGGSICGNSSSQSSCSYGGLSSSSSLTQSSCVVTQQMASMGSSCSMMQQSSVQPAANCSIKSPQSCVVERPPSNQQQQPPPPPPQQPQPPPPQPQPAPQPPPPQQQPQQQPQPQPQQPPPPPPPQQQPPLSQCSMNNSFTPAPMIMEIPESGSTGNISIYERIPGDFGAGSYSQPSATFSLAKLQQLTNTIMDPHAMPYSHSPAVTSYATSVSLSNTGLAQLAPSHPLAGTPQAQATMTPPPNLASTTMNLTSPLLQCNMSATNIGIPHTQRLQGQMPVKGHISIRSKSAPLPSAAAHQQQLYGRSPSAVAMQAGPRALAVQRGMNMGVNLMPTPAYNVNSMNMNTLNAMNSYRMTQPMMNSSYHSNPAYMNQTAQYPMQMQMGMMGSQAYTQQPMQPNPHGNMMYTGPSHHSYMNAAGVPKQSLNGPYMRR
ASSAY OVERVIEW: KAT6A assay (SAMDI-MS acetylation of H3 1-21 peptide)
Assay type: biochemical
CONDITION SUMMARY: Morrison equation fit; replicate number in parentheses; read-out: KAT6A Ki (nM) (replicate number)
Response schema: value (number) is log10 of Ki in units of nM.

# count of solved cases: 5
Reading of log10 Ki for CCc1cc(Nc2cc3onc(NS(=O)(=O)c4c(OC)cc(C5COCCO5)cc4OC)c3cc2OC)[nH]n1 (single isomer, unassigned) [Example 239] with KAT6A Full length enzyme (Homo sapiens (Human)): 0.32

Measured on KAT6A Full length enzyme (Homo sapiens (Human)), COc1cc2c(NS(=O)(=O)c3c(OC)cc(CN4CCC(F)(F)C4)cc3OC)noc2cc1Nc1cc(C2CC2)n[nH]1 has a documented log10 Ki of -0.05

// compound COc1cc2c(NS(=O)(=O)c3c(OC)cc(-c4nccc(CN(C)C)n4)cc3OC)noc2cc1Nc1cc(C2CC2)n[nH]1 , assay KAT6A Full length enzyme (Homo sapiens (Human)), log10 Ki value: -0.30

Reported KAT6A Full length enzyme (Homo sapiens (Human)) log10 Ki for item COc1cc2c(NS(=O)(=O)c3c(OC)cc(C4CN(C)CC(F)(F)C4)cc3OC)noc2cc1Nc1cc(C2CC2)[nH]n1 (single isomer, unassigned) [Example 229] was 0.23

COc1cccc(OC)c1S(=O)(=O)Nc1noc2cc(N[C@H]3CCOC3)cc(OC)c12 tested on KAT6A Full length enzyme (Homo sapiens (Human)) gave log10 Ki: 1.00

Next:
For the compound COc1cc2c(NS(=O)(=O)c3c(OC)cccc3OC)noc2cc1Nc1nc(C)cc(C)n1 , the measured log10 Ki on KAT6A Full length enzyme (Homo sapiens (Human)) was 2.31

Given the compound COc1cc2c(NS(=O)(=O)c3c(OC)cc(-c4ccn(C)n4)cc3OC)noc2cc1Nc1cc(C2CC2C)n[nH]1 (single isomer, unassigned) [Example 242] and test system KAT6A Full length enzyme (Homo sapiens (Human)), the measured log10 Ki is -0.05

Item COc1cc2c(NS(=O)(=O)c3c(OC)cc(C4CCN([C@@H]5CCOC5)C4)cc3OC)noc2cc1Nc1cc(C2CC2)n[nH]1 (single isomer, unassigned) [Example 161] ; assay system KAT6A Full length enzyme (Homo sapiens (Human)); log10 Ki reported as 0.08

Reported log10 Ki (KAT6A Full length enzyme (Homo sapiens (Human))) for entry COc1cc2c(NS(=O)(=O)c3c(OC)cc(C4CCCN4C)cc3OC)noc2cc1Nc1cc(C2CC2)n[nH]1 (racemic) is 0.30
